Biological target: M-phase inducer phosphatase 3 (Homo sapiens, UniProt P30307)
Sequence (P30307 whole entry): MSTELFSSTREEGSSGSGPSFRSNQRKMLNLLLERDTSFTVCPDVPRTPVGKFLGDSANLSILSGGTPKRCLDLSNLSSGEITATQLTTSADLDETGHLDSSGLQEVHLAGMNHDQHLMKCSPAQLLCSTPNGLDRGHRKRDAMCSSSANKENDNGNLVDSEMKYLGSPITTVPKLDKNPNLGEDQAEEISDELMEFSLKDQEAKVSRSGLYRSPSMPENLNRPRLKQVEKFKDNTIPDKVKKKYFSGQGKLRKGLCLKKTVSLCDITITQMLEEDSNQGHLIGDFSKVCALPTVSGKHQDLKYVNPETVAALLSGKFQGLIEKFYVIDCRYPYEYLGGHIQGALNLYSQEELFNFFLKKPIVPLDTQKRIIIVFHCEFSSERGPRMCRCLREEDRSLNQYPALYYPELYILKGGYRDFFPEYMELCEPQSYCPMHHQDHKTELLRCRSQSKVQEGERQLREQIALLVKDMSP
Assay: Inhibitory activity against recombinant CDC25C
Record form. Attribute: IC50. Fill in for each entry.
Answers are plain numbers, in nM.

Batch of 4 compounds: report IC50 for each.
1. CCc1nc2c([nH]1)C(=O)/C(=N/CCN(C)C)C=C2O
2. CN(C)CC/N=C1\C=C(O)c2nc(-c3ccccc3)oc2C1=O
3. Cc1nc2c(s1)C(O)=C/C(=N\CCN(C)C)C2=O
4. CN(C)CC/N=C1\C=C(O)c2oc(-c3ccccc3)nc2C1=O

Result ::
12000
230
150
230

---

Target: M-phase inducer phosphatase 3 (Homo sapiens, UniProt P30307)
Assay: Inhibitory activity against recombinant CDC25C
MEASURED PARAMETER: pIC50
Numbers only, as −log10 of the molar value.

CN(C)CC/N=C1\C=C(O)c2[nH]c(-c3ccccc3)nc2C1=O ... 4.77
CCc1nc2c(o1)C(=O)C(NCCN(C)C)=CC2=O ... 6.89
CCc1nc2c(o1)C(O)=C/C(=N\CCN(C)C)C2=O ... 6.89
CN(C)CC/N=C1\C=C(O)c2cn(-c3ccccc3)nc2C1=O ... 4.92
CN(C)CC/N=C1\C=C(O)c2cn(C)cc2C1=O ... 4.09

// moving on: another record for pIC50
Query :: Which pIC50 value is on record for `CN(C)CC/N=C1\C=C(O)c2nn(-c3ccccc3)cc2C1=O` ?
Result :: 4.92

// provenance: ChEMBL document CHEMBL1148551
